Hello, the source for this data is the supplement of paper PMC9112550, in case you need it.

System: Escherichia coli TOP10
assay_comment: shrunken log2 fold change of peptide-encoding DNA abundance (4.5 h post-induction vs induction); higher = less antimicrobial activity (less host growth inhibition)
measurement_conditions: time post-induction: 4.5 h; library: site-saturation at positions 5, 18, 19, 20
The following sequences are listed with their measured shrunken log2 fold change values.

- residues: "RRIRNRPPRLPRPRPRPVKEPRP"
  shrunken log2 fold change: -0.0182
- residues: "RRIRWRPPRLPRPRPRPIPSPRP"
  shrunken log2 fold change: 0.0317
- residues: "RRIRNRPPRLPRPRPRPMCRPRP"
  shrunken log2 fold change: -0.0579
- residues: "RRIRFRPPRLPRPRPRPCRMPRP"
  shrunken log2 fold change: -0.168
- residues: "RRIRVRPPRLPRPRPRPYYEPRP"
  shrunken log2 fold change: -0.632
- residues: "RRIRIRPPRLPRPRPRPLLTPRP"
  shrunken log2 fold change: -0.156
- residues: "RRIRARPPRLPRPRPRPNVTPRP"
  shrunken log2 fold change: 0.17
- residues: "RRIRNRPPRLPRPRPRPINCPRP"
  shrunken log2 fold change: 0.00363
- residues: "RRIRPRPPRLPRPRPRPYGPPRP"
  shrunken log2 fold change: -0.37
- residues: "RRIRCRPPRLPRPRPRPIYDPRP"
  shrunken log2 fold change: -0.867
- residues: "RRIRERPPRLPRPRPRPAQDPRP"
  shrunken log2 fold change: 0.00521
- residues: "RRIRQRPPRLPRPRPRPGDFPRP"
  shrunken log2 fold change: -0.179
- residues: "RRIRDRPPRLPRPRPRPSSTPRP"
  shrunken log2 fold change: 0.00883
- residues: "RRIRGRPPRLPRPRPRPNGCPRP"
  shrunken log2 fold change: 0.12
- residues: "RRIRFRPPRLPRPRPRPVMWPRP"
  shrunken log2 fold change: 0.0942

* * *

System: Escherichia coli TOP10;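 also: peptides expressed intracellularly from a pBAD plasmid library in pooled LB shake-flask culture, induced with 0.3% L-arabinose, DNA abundance read by NGS, three biological replicates, DESeq2 with apeglm shrinkage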
assay_comment: shrunken log2 fold change of peptide-encoding DNA abundance (4.5 h post-induction vs induction); higher = less antimicrobial activity (less host growth inhibition)
measurement_conditions: time post-induction: 4.5 h; library: site-saturation at positions 5, 18, 19, 20
// false strictly below -0.05 in shrunken log2 fold change; true otherwise

- residues: "RRIRMRPPRLPRPRPRPAHIPRP"
  label_value: "false"
- residues: "RRIRHRPPRLPRPRPRPSPNPRP"
  label_value: "false"
- residues: "RRIRKRPPRLPRPRPRPKNYPRP"
  label_value: "true"
- residues: "RRIRRRPPRLPRPRPRPSHQPRP"
  label_value: "true"
- residues: "RRIRERPPRLPRPRPRPWDDPRP"
  label_value: "true"
- residues: "RRIRNRPPRLPRPRPRPGLCPRP"
  label_value: "true"
- residues: "RRIRVRPPRLPRPRPRPYCGPRP"
  label_value: "false"
- residues: "RRIRDRPPRLPRPRPRPCDRPRP"
  label_value: "false"
- residues: "RRIRARPPRLPRPRPRPMCAPRP"
  label_value: "true"
- residues: "RRIRMRPPRLPRPRPRPQVIPRP"
  label_value: "false"
- residues: "RRIRNRPPRLPRPRPRPQVHPRP"
  label_value: "false"
- residues: "RRIRFRPPRLPRPRPRPFVMPRP"
  label_value: "false"
- residues: "RRIRSRPPRLPRPRPRPRCFPRP"
  label_value: "true"
- residues: "RRIRSRPPRLPRPRPRPPHCPRP"
  label_value: "true"
- residues: "RRIRNRPPRLPRPRPRPEQFPRP"
  label_value: "true"
- residues: "RRIRDRPPRLPRPRPRPSYYPRP"
  label_value: "false"
- residues: "RRIRRRPPRLPRPRPRPPIGPRP"
  label_value: "false"
- residues: "RRIRFRPPRLPRPRPRPIPGPRP"
  label_value: "true"
- residues: "RRIRVRPPRLPRPRPRPDGFPRP"
  label_value: "true"
- residues: "RRIRCRPPRLPRPRPRPAHKPRP"
  label_value: "false"
- residues: "RRIRTRPPRLPRPRPRPTCAPRP"
  label_value: "true"
- residues: "RRIRRRPPRLPRPRPRPTICPRP"
  label_value: "true"
- residues: "RRIRLRPPRLPRPRPRPDLPPRP"
  label_value: "true"
- residues: "RRIRGRPPRLPRPRPRPDMGPRP"
  label_value: "true"
- residues: "RRIRKRPPRLPRPRPRPNKVPRP"
  label_value: "true"
- residues: "RRIRSRPPRLPRPRPRPCMSPRP"
  label_value: "false"
- residues: "RRIRYRPPRLPRPRPRPSMMPRP"
  label_value: "false"
- residues: "RRIRSRPPRLPRPRPRPCNKPRP"
  label_value: "false"
- residues: "RRIRSRPPRLPRPRPRPTGFPRP"
  label_value: "true"
- residues: "RRIRCRPPRLPRPRPRPFMSPRP"
  label_value: "true"
- residues: "RRIRDRPPRLPRPRPRPTQEPRP"
  label_value: "true"
- residues: "RRIRHRPPRLPRPRPRPSGMPRP"
  label_value: "true"
